Cited source for all entries: PubChem BioAssay (NCI)

- Test system: A498 renal
- assay-protocol: NCI-60 one-dose screen, 48 h
- condition-notes: 10 µM unless noted
About 83,000 compounds went through this panel and 20% of them were active in at least one assay; those are over-represented in the sample as a whole. The source made the active and inactive calls. How the source made its calls: active means growth percent below 10; inactive means the rest.
The categories you may choose from are active, inactive

The examples below pair each entry with its known result.
{"molecule": "COc1cc(/C=C/C(=O)CC(=O)/C=C/c2ccc(OC(=O)CCNC34CC5CC(CC(C5)C3)C4)c(OC)c2)ccc1OC(=O)CCNC12CC3CC(CC(C3)C1)C2", "classification": "inactive"}
{"molecule": "O=C(N/N=C/c1cccc(O)c1O)c1ccccc1", "classification": "inactive"}
{"molecule": "COc1cnc2c(c1)C(=O)c1c-2n(CCCN2CCCC2)c(=O)c2cc(F)ccc12", "classification": "active"}
{"molecule": "COc1cc(/C=C2\\SC(N3CCCCC3)=NC2=O)ccc1OCCCCCCOc1ccc(/C=C2\\SC(N3CCCCC3)=NC2=O)cc1OC", "classification": "active"}
{"molecule": "COC(=O)[C@H](Cc1cnc[nH]1)NC(=O)[C@@H](NC(=O)Nc1cc(C(F)(F)F)cc(C(F)(F)F)c1)C(C)C", "classification": "active"}

Challenge: Record lookup: outcome of this test for CC(C)C[C@H](NC(=O)/C=C/Cn1ccc2ccccc2c1=O)B(O)O ?
Response given: active

Challenge: Record lookup: outcome of this test for CCN(CC)c1ccc(N=C2C=CC(=O)C=C2NC(C)=O)cc1 ?
Response given: inactive

Challenge: Record lookup: outcome of this test for C#C[C@]1(O)CCC2C3CCc4cc(O)ccc4C3CC[C@@]21C (some centres undefined) ?
Response given: inactive

Challenge: Record lookup: outcome of this test for COc1cnc2c(c1)C(=O)c1c-2n(CCCN2CCC(O)CC2)c(=O)c2cc(F)ccc12 ?
Response given: active

Challenge: Record lookup: outcome of this test for NC(=N\N=C/Cc1ccccc1)/C(N)=N\N=C\Cc1ccccc1 ?
Response given: inactive
